- SYSTEM NAME: GLS1 (purified recombinant human GAC) (Homo sapiens, UniProt O94925)
- Sequence (O94925 55-598 isoform O94925-3 limits assumed): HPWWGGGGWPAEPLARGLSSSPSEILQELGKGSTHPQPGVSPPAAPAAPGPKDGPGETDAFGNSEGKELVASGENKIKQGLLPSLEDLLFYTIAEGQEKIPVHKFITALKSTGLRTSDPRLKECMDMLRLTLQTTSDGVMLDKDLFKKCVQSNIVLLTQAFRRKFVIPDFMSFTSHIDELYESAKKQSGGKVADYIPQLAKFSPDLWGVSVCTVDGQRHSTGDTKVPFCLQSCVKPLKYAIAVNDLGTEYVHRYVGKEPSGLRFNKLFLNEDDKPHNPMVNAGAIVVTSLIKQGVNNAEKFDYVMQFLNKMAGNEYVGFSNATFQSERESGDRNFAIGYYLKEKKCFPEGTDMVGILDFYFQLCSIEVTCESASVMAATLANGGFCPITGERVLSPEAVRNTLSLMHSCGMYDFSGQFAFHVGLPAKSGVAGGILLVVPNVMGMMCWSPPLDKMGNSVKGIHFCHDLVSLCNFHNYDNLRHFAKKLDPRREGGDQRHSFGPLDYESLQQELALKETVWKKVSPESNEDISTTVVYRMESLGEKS
- RUN DESCRIPTION: GLS1 enzymatic activity assay (dual-coupled, Amplex UltraRed/resorufin)
PARAMETER MEASURED: IC50

Some solved entries appear below for comparison.
Noted IC50 for CC(C)(C)CC(=O)Nc1ccn(CCC(F)Cn2cc(C(=O)NCc3cccc(OC(F)(F)F)c3)nn2)c(=O)c1F (stereo not drawn) , tested on GLS1 (purified recombinant human GAC) (Homo sapiens, UniProt O94925): < 0.1 µM

IC50 on GLS1 (purified recombinant human GAC) (Homo sapiens, UniProt O94925) for O=C(Cc1ccccc1)Nc1ccn(CCC(F)Cn2cc(C(=O)NCc3ccc(CF)nc3)nn2)c(=O)c1F (stereo not drawn) is 0.1 to 0.5 µM

Further cases:
The compound O=C(NCc1cccc(OC(F)(F)F)c1)c1cn(CC(F)CCn2ccc(COc3ccc(Cl)cc3)cc2=O)nn1 (stereo not drawn) , when measured on GLS1 (purified recombinant human GAC) (Homo sapiens, UniProt O94925), yielded IC50 of < 0.1 µM

Case CC(C)(C)OC(=O)N1CCN(CC(=O)Nc2ccn(CCC(F)Cn3cc(C(N)=O)nn3)c(=O)c2)CC1 (stereo not drawn) , GLS1 (purified recombinant human GAC) (Homo sapiens, UniProt O94925), IC50 recorded as 0.5 to 5 µM

Bench note, GLS1 (purified recombinant human GAC) (Homo sapiens, UniProt O94925): CC(C)CC(=O)Nc1ccn(CCCCn2cc(C(=O)NCc3ccccn3)nn2)c(=O)c1 , IC50 reads 0.5 to 5 µM

Record for O=C(NCc1cccc(OC(F)(F)F)c1)c1cn(CCCCn2ccc(NC(=O)C(F)c3ccccc3)cc2=O)nn1 (stereo not drawn) under target or system GLS1 (purified recombinant human GAC) (Homo sapiens, UniProt O94925): IC50 reported as < 0.1 µM

Log: GLS1 (purified recombinant human GAC) (Homo sapiens, UniProt O94925), compound Cc1ccc(CNC(=O)c2cn(CC(F)CCn3ccc(NC(=O)C(=O)N4CCCCC4)c(F)c3=O)nn2)cn1 (stereo not drawn) , IC50 = 0.1 to 0.5 µM

---

// reported pIC50 per item
- SYSTEM NAME: GLS1 (purified recombinant human GAC) (Homo sapiens)
- Sequence (O94925 55-598 isoform O94925-3 limits assumed): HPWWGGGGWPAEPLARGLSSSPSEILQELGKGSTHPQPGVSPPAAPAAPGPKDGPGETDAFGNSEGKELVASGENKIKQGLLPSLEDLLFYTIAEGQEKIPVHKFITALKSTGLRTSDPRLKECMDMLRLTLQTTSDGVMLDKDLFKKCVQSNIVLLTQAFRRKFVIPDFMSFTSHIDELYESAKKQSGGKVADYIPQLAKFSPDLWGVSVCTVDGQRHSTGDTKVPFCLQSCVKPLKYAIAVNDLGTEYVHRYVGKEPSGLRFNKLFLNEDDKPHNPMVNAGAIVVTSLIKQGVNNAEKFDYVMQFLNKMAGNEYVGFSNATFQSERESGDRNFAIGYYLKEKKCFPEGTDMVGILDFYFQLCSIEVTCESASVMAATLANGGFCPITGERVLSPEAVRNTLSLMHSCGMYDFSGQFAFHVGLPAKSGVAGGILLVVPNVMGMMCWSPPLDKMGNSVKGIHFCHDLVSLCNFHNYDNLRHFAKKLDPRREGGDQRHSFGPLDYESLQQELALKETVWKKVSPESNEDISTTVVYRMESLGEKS
- RUN DESCRIPTION: GLS1 enzymatic activity assay (dual-coupled, Amplex UltraRed/resorufin)
pIC50: −log10 of the molar value.

Test item O=C(Cc1ccccc1)Nc1ccn(CCCCc2nnc(NC(=O)Cc3ccccc3)s2)c(=O)c1 ; GLS1 (purified recombinant human GAC) (Homo sapiens); reported pIC50 was > 7.00

Item O=C(CN1CCOCC1)Nc1ccn(CCC(F)Cn2cc(C(=O)NCc3cccc(OC(F)(F)F)c3)nn2)c(=O)c1 (stereo not shown) was tested on GLS1 (purified recombinant human GAC) (Homo sapiens); the reported pIC50 is 6.30 to 7.00

Simply: Cc1ccc(CNC(=O)c2cn(CC(F)CCn3ccc(NC(=O)Cc4ccccc4)cc3=O)nn2)cn1 (stereo not shown) , GLS1 (purified recombinant human GAC) (Homo sapiens), pIC50 = 6.30 to 7.00

Next:
So the reported pIC50 for O=C(Cc1cccnc1)Nc1ccn(CCCCc2nnc(NC(=O)Cc3ccccc3)s2)c(=O)n1 , on GLS1 (purified recombinant human GAC) (Homo sapiens), turned out to be > 7.00

The recorded pIC50 with GLS1 (purified recombinant human GAC) (Homo sapiens) for O=C(CC1CCC(F)(F)CC1)Nc1ccn(CCCCn2cc(C(=O)NCc3cccc(OC(F)(F)F)c3)nn2)c(=O)c1 was > 7.00

The reported pIC50 value, GLS1 (purified recombinant human GAC) (Homo sapiens), for O=C(Cc1cccc(OC(F)(F)F)c1)Nc1ccc(CCCCn2ccc(NC(=O)NCc3ccccc3)nc2=O)nn1 reads > 7.00

Record NC(=O)CNC(=O)c1cn(CCCCn2ccc(NC(=O)Cc3cccc(OC(F)(F)F)c3)cc2=O)nn1 has GLS1 (purified recombinant human GAC) (Homo sapiens) pIC50 equal to 6.30 to 7.00

---

- SYSTEM NAME: GLS1 (purified recombinant human GAC) (Homo sapiens)
- RUN DESCRIPTION: GLS1 enzymatic activity assay (dual-coupled, Amplex UltraRed/resorufin)
- Assay type: biochemical
The entries below come with measured IC50 values attached.

Field: example entries. Status: answers known.
Reported GLS1 (purified recombinant human GAC) (Homo sapiens) IC50 for item Nc1ccn(CCCCc2ccc(NC(=O)Cc3ccccc3)nn2)c(=O)n1 [Example 21] was 500 to 5000 nM

The reported IC50 value, GLS1 (purified recombinant human GAC) (Homo sapiens), for O=C(Cc1ccccc1)Nc1ccn(CC[C@H](F)Cn2cc(C(=O)NCc3cccc(OC(F)(F)F)c3)nn2)c(=O)c1F [Example 127] reads < 100 nM

Record O=C(CC1CCC1)Nc1ccn(CCC(F)Cn2cc(C(=O)NCc3cccc(OC(F)(F)F)c3)nn2)c(=O)c1F (stereo not shown) [Example 339] ; system GLS1 (purified recombinant human GAC) (Homo sapiens); IC50 = < 100 nM

GLS1 (purified recombinant human GAC) (Homo sapiens) assay, compound Cc1ccc(CNC(=O)c2cn(CCCCn3ccc(NC(=O)C4CCCC4)cc3=O)nn2)cn1 [Example 159] , recorded IC50 = 100 to 500 nM

Query O=C(Nc1ccn(CCC(F)Cn2cc(C(=O)NCc3cc(OC(F)(F)F)ccc3F)nn2)c(=O)c1F)C(=O)N1CCC[C@@H](C(F)(F)F)C1 (stereo partly shown) [Example 434] on GLS1 (purified recombinant human GAC) (Homo sapiens); IC50 returned: < 100 nM

Response field IC50 (GLS1 (purified recombinant human GAC) (Homo sapiens)) for item O=C(NCc1cccc(OC(F)(F)F)c1)c1cn(CC(F)CCn2ccc(COc3cccc(OC(F)(F)F)c3)cc2=O)nn1 (stereo not shown) [Example 476] : < 100 nM

New cases:
IC50 for GLS1 (purified recombinant human GAC) (Homo sapiens) with input O=C(NCc1ccc(C(F)(F)F)nc1)c1cn(CC(F)CCn2ccc(NC(=O)C(F)c3ccccc3)c(F)c2=O)nn1 (stereo not shown) [Example 372] equals < 100 nM

// returns IC50 for Cc1ccn(CCCCn2cc(C(=O)NCc3cccc(OC(F)(F)F)c3)nn2)c(=O)c1 [Example 11] with GLS1 (purified recombinant human GAC) (Homo sapiens); value = 500 to 5000 nM

Entry O=C(Cc1ccccc1)Nc1ccn(CCC(F)Cn2cc(C(=O)NCc3ccc(C(F)(F)F)nc3)nn2)c(=O)c1F (stereo not shown) [Example 367] : IC50 on GLS1 (purified recombinant human GAC) (Homo sapiens) = < 100 nM

GET /values?item= O=C(CN1CCCC(F)C1)Nc1ccn(CCC(F)Cn2cc(C(=O)NCc3cccc(OC(F)(F)F)c3)nn2)c(=O)c1F (stereo not shown) [Example 291] &system= GLS1 (purified recombinant human GAC) (Homo sapiens) returns IC50: < 100 nM
